// provenance: ChEMBL document CHEMBL1129348

Test system: Opioid receptors mu & kappa (Cavia porcellus)
protocol-notes: Selectivity ratio between mu and kappa opioid receptor from guinea pig brain homogenate
Strictly below 20 in Ratio: fulfilled. Otherwise: not fulfilled.

Below are worked cases with known answers.
CC[C@H](C)[C@H](NC(=O)[C@H](CCCN=C(N)N)NC(=O)[C@H](CCCN=C(N)N)NC(=O)[C@H](CC(C)C)NC(=O)[C@H](Cc1ccccc1)NC(=O)[C@H](CCCCN)NC(=O)CNC(=O)[C@@H](N)Cc1ccc(O)cc1)C(=O)N[C@@H](CCCN=C(N)N)C(=O)N1CCC[C@H]1C(=O)N[C@@H](CCCCN)C(N)=O    not fulfilled
CC[C@@H](C)[C@@H](NC(=O)CNC(=O)[C@@H](N)Cc1ccc(O)cc1)C(=O)N[C@@H](Cc1ccccc1)C(=O)N[C@@H](CC(C)C)C(=O)N[C@@H](CCCN=C(N)N)C(=O)N[C@@H](CCCN=C(N)N)C(=O)N[C@H](C(=O)N[C@@H](CCCN=C(N)N)C(=O)N1CCC[C@H]1C(=O)N[C@@H](CCCCN)C(N)=O)[C@@H](C)CC    fulfilled
CC[C@H](C)[C@H](NC(=O)[C@H](CCCN=C(N)N)NC(=O)[C@H](CCCN=C(N)N)NC(=O)[C@H](CC(C)C)NC(=O)[C@H](Cc1ccccc1)NC(=O)[C@@H](CCC(=O)O)NC(=O)CNC(=O)[C@@H](N)Cc1ccc(O)cc1)C(=O)N[C@@H](CCCN=C(N)N)C(=O)N1CCC[C@H]1C(=O)N[C@@H](CCCCN)C(N)=O    fulfilled
CC[C@H](C)[C@H](NC(=O)[C@H](CCCN=C(N)N)NC(=O)[C@H](CCCN=C(N)N)NC(=O)[C@H](CC(C)C)NC(=O)[C@H](Cc1ccccc1)NC(=O)[C@@H](NC(=O)CNC(=O)[C@@H](N)Cc1ccc(O)cc1)[C@@H](C)c1ccccc1)C(=O)N[C@@H](CCCN=C(N)N)C(=O)N1CCC[C@H]1C(=O)N[C@@H](CCCCN)C(N)=O    fulfilled

Would you kindly verify if Ratio of CC[C@H](C)[C@H](NC(=O)[C@H](CCCN=C(N)N)NC(=O)[C@H](CCCN=C(N)N)NC(=O)[C@H](CC(C)C)NC(=O)[C@H](Cc1ccccc1)NC(=O)[C@H](CCC(=O)O)NC(=O)CNC(=O)[C@@H](N)Cc1ccc(O)cc1)C(=O)N[C@@H](CCCN=C(N)N)C(=O)N1CCC[C@H]1C(=O)N[C@@H](CCCCN)C(N)=O is strictly less than 20?
not fulfilled

----------
test-target: Mu-type opioid receptor (Cavia porcellus)
Sequence (P97266 whole entry): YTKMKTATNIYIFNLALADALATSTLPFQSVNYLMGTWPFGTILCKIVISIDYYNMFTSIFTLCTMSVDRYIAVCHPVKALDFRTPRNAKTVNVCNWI
endpoint: pIC50
Formally, pIC50 is defined as -log10 of the concentration c, with c in mol/L.

Recorded results for 2 compounds are shown here.
CC[C@H](C)[C@H](NC(=O)[C@H](CCCNC(=N)N)NC(=O)[C@H](CCCNC(=N)N)NC(=O)[C@H](CC(C)C)NC(=O)[C@H](Cc1ccccc1)NC(=O)[C@@H](CCCCN)NC(=O)CNC(=O)[C@@H](N)Cc1ccc(O)cc1)C(=O)N[C@@H](CCCNC(=N)N)C(=O)N1CCC[C@H]1C(=O)N[C@@H](CCCCN)C(N)=O    5.72
CC[C@H](C)[C@H](NC(=O)[C@H](CCCN=C(N)N)NC(=O)[C@H](CCCN=C(N)N)NC(=O)[C@H](CC(C)C)NC(=O)[C@H](Cc1ccccc1)NC(=O)[C@H](CCCCN)NC(=O)CNC(=O)[C@@H](N)Cc1ccc(O)cc1)C(=O)N[C@@H](CCCN=C(N)N)C(=O)N1CCC[C@H]1C(=O)N[C@@H](CCCCN)C(N)=O    5.13

Shifting focus to the compound that follows.
Consider the compound CC[C@H](C)[C@H](NC(=O)[C@H](CCCN=C(N)N)NC(=O)[C@H](CCCN=C(N)N)NC(=O)[C@H](CC(C)C)NC(=O)[C@H](Cc1ccccc1)NC(=O)[C@H](NC(=O)CNC(=O)[C@@H](N)Cc1ccc(O)cc1)[C@@H](C)c1ccccc1)C(=O)N[C@@H](CCCN=C(N)N)C(=O)N1CCC[C@H]1C(=O)N[C@@H](CCCCN)C(N)=O and give its measured pIC50.
6.95
